Origin of the recorded values: paper PMC8159961

Biological target: human 5-HT7b receptor (Homo sapiens, UniProt P34969)
Construct: expressed in transfected cells
Sequence (P34969 1-432): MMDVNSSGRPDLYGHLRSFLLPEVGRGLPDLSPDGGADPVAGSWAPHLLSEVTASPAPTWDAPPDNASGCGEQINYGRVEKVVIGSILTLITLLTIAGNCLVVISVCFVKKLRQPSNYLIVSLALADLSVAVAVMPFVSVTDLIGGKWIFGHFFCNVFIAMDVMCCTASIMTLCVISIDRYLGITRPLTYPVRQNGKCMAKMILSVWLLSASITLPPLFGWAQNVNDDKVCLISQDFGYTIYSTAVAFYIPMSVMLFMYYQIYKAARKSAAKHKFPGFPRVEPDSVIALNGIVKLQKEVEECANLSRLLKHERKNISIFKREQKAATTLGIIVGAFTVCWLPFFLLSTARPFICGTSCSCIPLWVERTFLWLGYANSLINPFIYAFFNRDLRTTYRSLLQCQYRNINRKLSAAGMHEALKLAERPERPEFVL
Assay: GPCR radioligand binding assay, [3H]-5-CT displacement, HEK293 membranes
Details: 10 µM
endpoint: 5-HT7 % Inhibition by plate position

compound	assay.system	assay.value
Cc1nccn1Cc1cccc(C#N)c1	human 5-HT7b receptor (Homo sapiens, UniProt P34969)	9%

Let us move to another entry and its 5-HT7 % Inhibition by plate position.
QUERY: # lookup: 5-HT7 % Inhibition by plate position of COc1ccc(C2=CCNCC2)cc1
RESULT: 19%

###

Biological target: human 5-HT7b receptor (Homo sapiens, UniProt P34969)
Construct: expressed in transfected cells
Assay: GPCR radioligand binding assay, [3H]-5-CT displacement, HEK293 membranes
Conditions: 10 µM
endpoint: 5-HT7 % Inhibition by plate position (%)
Reply numerically in %, unit not repeated.

For orientation, consider the following solved cases.
molecule	measure.unit	5-HT7 % Inhibition by plate position
N#Cc1ccc(C(=O)N2CCOCC2)cc1	%	9
O=C(c1ccccc1)N1CCC(CO)CC1	%	12
Clc1ccc2nnnn2n1	%	0
CC(=O)c1ccc2c(c1)CCCN2	%	0
Cc1cc(-c2ccccc2)n[nH]1	%	34

QUERY: Fill in: 5-HT7 % Inhibition by plate position of CC1C(=O)NC(=O)N1c1ccc(Cl)cc1 (centres unmarked) is ___
RESULT: 17

QUERY: Oc1nnc(-c2ccccc2)o1 , same question.
RESULT: 1

QUERY: Now consider c1ccc2oc(C3CCCNC3)nc2c1 (centres unmarked) and answer again.
RESULT: 0

QUERY: What do you have for CN1CC(=O)NC1=O ?
RESULT: 0

QUERY: One more molecule: Cn1c(CO)nc2ccccc21
RESULT: 5

QUERY: Same lookup for O=C(O)c1cccc(Nc2ncccn2)c1 , please.
RESULT: 12

QUERY: Queued: Oc1ccc(C2CCNCC2)cc1
RESULT: 11

QUERY: Please do the same for c1ccc2sc(N3CCNCC3)nc2c1 as well.
RESULT: 28

QUERY: Please answer likewise for O=C1CCC(=O)N(c2ccccc2)N1
RESULT: 24
